- TARGET OF ASSAY: huSTING (WT) (Homo sapiens (Human), UniProt Q86WV6, H232R)
- Sequence (Q86WV6 other isoform, or with tags, fused parts or gaps, stated change not applied): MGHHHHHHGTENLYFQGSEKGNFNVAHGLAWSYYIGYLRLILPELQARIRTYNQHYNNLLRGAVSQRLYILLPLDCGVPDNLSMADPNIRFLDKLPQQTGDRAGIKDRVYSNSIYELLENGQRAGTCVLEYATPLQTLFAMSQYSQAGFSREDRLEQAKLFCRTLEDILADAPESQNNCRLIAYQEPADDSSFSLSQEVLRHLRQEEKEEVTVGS
- PROTOCOL DETAILS: Differential scanning fluorimetry (DSF), huSTING (WT)
- Type: binding
- SETUP CONDITIONS: read-out: DSF huSTING (WT) ΔTm (° C.)
Below, each of the compounds is paired with its reported ΔTm at 100 µM value.
// units = °C; emit number, no label

# annotated cases, reported ΔTm at 100 µM shown
{"SMILES REPR": "NC(=O)c1ccc(OCc2c(C(=O)O)sc3cc(F)cc(F)c23)cc1", "ΔTm at 100 µM [°C]": 0.63}
{"SMILES REPR": "N#Cc1cccc2sc(C(=O)O)c(COc3ccc(C(N)=O)cc3)c12", "ΔTm at 100 µM [°C]": 1.88}
{"SMILES REPR": "NC(=O)c1ccc(OCc2c(C(=O)O)sc3ccc(Cl)cc23)cc1", "ΔTm at 100 µM [°C]": -4.26}

Query: Value lookup for ΔTm at 100 µM; key = Cc1cc(OCc2c(C(=O)O)sc3cccc(F)c23)ccc1C(N)=O
Reply: -1.28

Query: Using the record for NC(=O)c1ccc(CCc2c(C(=O)O)sc3cccc(F)c23)cc1 , report its ΔTm at 100 µM.
Reply: -1.07

Query: Need ΔTm at 100 µM of Cc1ccc2sc(C(=O)O)c(COc3ccc(C(N)=O)cc3)c2c1Cl , thanks.
Reply: -0.6

Query: Data request, read-out ΔTm at 100 µM, for COc1cc(C(N)=O)cc(OC)c1OCc1c(C(=O)O)sc2cccc(Cl)c12
Reply: -0.64

Query: For NC(=O)c1ccc(OCc2c(C(=O)O)sc3ccc(F)c(F)c23)cc1 , what is its reported ΔTm at 100 µM?
Reply: 3.49

Query: Form field: reported ΔTm at 100 µM of COc1cc(C(N)=O)ccc1OCc1c(C(=O)O)sc2cccc(Cl)c12
Reply: -0.32

Query: Fill in: ΔTm at 100 µM of NC(=O)c1cc(F)c(OCc2c(C(=O)O)sc3cccc(F)c23)c(Br)c1 is ___
Reply: -1.29

Query: ΔTm at 100 µM; subject: NC(=O)c1ccc(OCc2c(C(=O)O)sc3cccc(F)c23)c(F)c1
Reply: 0.54

Query: I would be grateful if you could share the reported ΔTm at 100 µM for COc1cc(C(N)=O)cc(C)c1OCc1c(C(=O)O)sc2cccc(Cl)c12 .
Reply: -1.03

Query: Given the compound NC(=O)c1ccc(OCc2c(C(=O)O)sc3cccc(F)c23)cc1C(F)(F)F , what is its reported ΔTm at 100 µM?
Reply: -2.15

Query: Quick one: ΔTm at 100 µM for NC(=O)c1ccc(OCc2c(C(=O)O)sc3cccc(C(F)(F)F)c23)cc1 ?
Reply: 5.96

Query: Which value of ΔTm at 100 µM has been reported for Nc1noc2cc(OCc3c(C(=O)O)sc4cccc(Cl)c34)ccc12 in the records?
Reply: -4.63

Query: Param item = NC(=O)c1ccc(OCc2c(C(=O)O)sc3cc(Cl)cc(F)c23)cc1 ; retrieve measured ΔTm at 100 µM.
Reply: -2.76

Query: Entry NC(=O)c1ccc(OCc2c(C(=O)O)sc3cccc(Cl)c23)cc1F has what ΔTm at 100 µM?
Reply: 3.79
